Biological target: PfCRT^Dd2 (Plasmodium falciparum, UniProt Q9N623, A220S/I356T/K76T/M74I/N326S/N75E/Q271E/R371I)
Sequence (Q9N623 whole entry A220S/I356T/K76T/M74I/N326S/N75E/Q271E/R371I): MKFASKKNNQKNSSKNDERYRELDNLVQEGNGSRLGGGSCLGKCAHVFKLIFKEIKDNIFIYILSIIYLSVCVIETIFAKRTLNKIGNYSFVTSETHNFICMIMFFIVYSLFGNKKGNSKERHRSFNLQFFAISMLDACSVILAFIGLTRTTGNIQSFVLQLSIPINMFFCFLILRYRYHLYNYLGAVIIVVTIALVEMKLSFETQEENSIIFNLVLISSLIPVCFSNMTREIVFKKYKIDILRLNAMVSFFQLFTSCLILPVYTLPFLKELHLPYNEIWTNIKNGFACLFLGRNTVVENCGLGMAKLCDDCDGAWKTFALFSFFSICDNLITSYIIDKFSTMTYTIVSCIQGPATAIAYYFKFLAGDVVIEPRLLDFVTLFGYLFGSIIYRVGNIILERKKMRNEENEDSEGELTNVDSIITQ
Test: [3H]CQ uptake into Xenopus oocytes, cis-inhibition by unlabelled solute
Type: cell-based
Details: read-out: [3H]CQ transport (% PfCRTDd2 control), cis-inhibition, PfCRTDd2; SEM
inhibition at 500 µM for assorted compounds
Enter your answer as a number in %; do not include the unit.

COMPOUND	UNIT SPEC	inhibition at 500 µM
CC(C)C[C@H](N)C(=O)O [L-leucine]	%	98
CC(C)[C@H](N)C(=O)O [L-valine]	%	98
NC(=O)CC[C@H](N)C(=O)O [L-glutamine]	%	98
N[C@@H](CCC(=O)O)C(=O)O [L-glutamic acid]	%	96

Please look at the following compound next.
Qu. Look up inhibition at 500 µM for this compound: N=C(N)NCCC[C@H](N)C(=O)O [L-arginine]
Ans. 99

---

Biological target: PfCRT^Ecu1110 (Plasmodium falciparum, UniProt Q9N623, A220S/I356L/K76T/N326D)
Sequence (Q9N623 whole entry A220S/I356L/K76T/N326D): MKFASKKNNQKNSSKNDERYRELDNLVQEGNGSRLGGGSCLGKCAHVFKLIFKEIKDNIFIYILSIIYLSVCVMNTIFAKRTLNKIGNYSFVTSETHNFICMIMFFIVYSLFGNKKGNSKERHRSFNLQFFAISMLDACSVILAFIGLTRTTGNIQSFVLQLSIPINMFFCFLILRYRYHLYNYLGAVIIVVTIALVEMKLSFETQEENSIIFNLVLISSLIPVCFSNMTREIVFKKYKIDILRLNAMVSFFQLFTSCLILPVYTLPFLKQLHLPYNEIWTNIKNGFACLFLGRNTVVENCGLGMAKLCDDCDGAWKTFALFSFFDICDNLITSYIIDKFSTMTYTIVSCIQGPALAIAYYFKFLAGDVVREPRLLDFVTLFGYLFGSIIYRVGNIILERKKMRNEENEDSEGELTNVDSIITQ
Experiment: [3H]CQ uptake into Xenopus oocytes, cis-inhibition by unlabelled solute
Type: cell-based
Conditions: [test solute] = 0.5 mM; PfCRTEcu1110 oocytes; background [3H]CQ accumulation subtracted; normalised to oocyte type control
PfCRT-mediated [3H]CQ transport, cis-inhibition (% PfCRTEcu1110 control): recorded values
Give the number first and the unit second.

SUBSTANCE	EXPERIMENTAL VALUE
VLSPAD [VD-6]	58 ± 3.5 % PfCRTEcu1110 control
HVDPEN [HN-6]	61 ± 1.5 % PfCRTEcu1110 control

Continue with the next substance.
Qu. Which PfCRT-mediated [3H]CQ transport, cis-inhibition (% PfCRTEcu1110 control) value belongs to LSDLHAHK [LK-8] ?
Ans. 62 ± 3.1 % PfCRTEcu1110 control

---

Here the recorded inhibition at 1000 µM is given for each entry.
Molecular target: PfCRT^Ecu1110 (Plasmodium falciparum, UniProt Q9N623, A220S/I356L/K76T/N326D)
Assay: [3H]CQ uptake into Xenopus oocytes, cis-inhibition by unlabelled solute
Format: cell-based
Details: read-out: PfCRT-mediated [3H]CQ transport, cis-inhibition (% PfCRTEcu1110 control)
Number in %, nothing else.

In the examples that follow, each entry is paired with its recorded inhibition at 1000 µM.
N[C@@H](Cc1ccccc1)C(=O)O 95
C[C@@H](O)[C@H](N)C(=O)O 95
N[C@@H](CCC(=O)O)C(=O)O 93

Kindly consider the entry below.
Qu. Hi! What's the reported inhibition at 1000 µM for CSCC[C@H](N)C(=O)O on PfCRT^Ecu1110 (Plasmodium falciparum, UniProt Q9N623, A220S/I356L/K76T/N326D)?
Ans. 95

---

Target: PfCRT^Ecu1110 (Plasmodium falciparum, UniProt Q9N623, A220S/I356L/K76T/N326D)
Assay: cell-based
Type: cell-based
Conditions: […], pH 5.5, read-out: Uptake of [3H]CQ (% PfCRTEcu1110 control), trans-stimulation, PfCRTEcu1110 oocytes; [test solute]i = 5 mM; total [3H]CQ transport, normalised to the oocyte type control
The molecules listed here are annotated with their activity at 5000 µM.
Use % as the unit, but write only the number.

MOLECULE	UNIT SPEC	activity at 5000 µM
NC(=O)CC[C@H](N)C(=O)O [L-glutamine]	%	99

Query molecule follows.
Qu. # value lookup — system PfCRT^Ecu1110 (Plasmodium falciparum, UniProt Q9N623, A220S/I356L/K76T/N326D), readout activity at 5000 µM, item N[C@@H](Cc1c[nH]cn1)C(=O)O [L-histidine]
Ans. 100

---

Target: PfCRT^Ecu1110 (Plasmodium falciparum, UniProt Q9N623, A220S/I356L/K76T/N326D)
Test: [3H]CQ uptake into Xenopus oocytes, cis-inhibition by unlabelled solute
Type: cell-based
Details: [test solute] = 0.5 mM; PfCRTEcu1110 oocytes; background [3H]CQ accumulation subtracted; normalised to oocyte type control
MEASURED ATTRIBUTE: PfCRT-mediated [3H]CQ transport, cis-inhibition (% PfCRTEcu1110 control)
Returns: string containing the number followed by the unit.

Known results for substances:
SUBSTANCE	EXPERIMENTAL VALUE
FPHFDLS [FS-7]	39 ± 2.5 % PfCRTEcu1110 control
HVDPENF [HF-7]	41 ± 1.8 % PfCRTEcu1110 control
PHFDLS [PS-6]	41 ± 2.5 % PfCRTEcu1110 control
VHLTPEEK [VK-8]	64 ± 2.7 % PfCRTEcu1110 control
FSDGLA [FA-6]	60 ± 0.7 % PfCRTEcu1110 control

Qu. Suppose we examine the substance YFPHFDLS [YS-8] ; what PfCRT-mediated [3H]CQ transport, cis-inhibition (% PfCRTEcu1110 control) value has been reported?
Ans. 43 ± 3.2 % PfCRTEcu1110 control

Qu. How about this substance: HVDDMPN [HN-7]
Ans. 36 ± 1.6 % PfCRTEcu1110 control

Qu. And for DPENFR [DR-6] ?
Ans. 38 ± 1.3 % PfCRTEcu1110 control

Qu. Follow-up item: SHCLLVT [ST-7]
Ans. 39 ± 1.1 % PfCRTEcu1110 control

---

Parameter Trans-stimulation: total [3H]CQ transport, PfCRTDd2 oocytes: see the listing below.
Molecular target: PfCRT^Dd2 (Plasmodium falciparum, UniProt Q9N623, A220S/I356T/K76T/M74I/N326S/N75E/Q271E/R371I)
Experiment: cell-based
Type: cell-based
Settings: footnote b: highest intracellular concentration tested was 30 mM (solubility); mean ± SEM; SEM

SEQUENCE ENTRY	EXPERIMENTAL VALUE
VHLTPEEKSAVT [VT-12]	100 ± 2.6b % of PfCRTDd2 control

Read the next record carefully.
Qu. What value of Trans-stimulation: total [3H]CQ transport, PfCRTDd2 oocytes has been reported for the following sequence? VEPSDTIENVK [VK-11]
Ans. 98 ± 3.8b % of PfCRTDd2 control

---

Target: PfCRT^Dd2 (Plasmodium falciparum, UniProt Q9N623, A220S/I356T/K76T/M74I/N326S/N75E/Q271E/R371I)
Experiment: cell-based
Assay type: cell-based
Settings: PfCRTDd2 oocytes; footnote b: highest intracellular concentration tested was 30 mM (solubility)
MEASURED ATTRIBUTE: Total [3H]CQ transport, trans-stimulation by injected solute

For orientation, consider the following solved cases.
SEQUENCE ENTRY	EXPERIMENTAL VALUE
LTPEEKSAVTALWGKVNVDEVGGEA [LA-25, additional peptide, 25 residues]	100 ± 3.3b % of the PfCRTDd2 control
NAVAHVDDMPNALSALSDLH [NH-20, additional peptide, 20 residues]	99 ± 2.8b % of the PfCRTDd2 control
FESFGDLSTPDAVMGNPKVK [FK-20, additional peptide, 20 residues]	101 ± 4.7b % of the PfCRTDd2 control

Qu. Which Total [3H]CQ transport, trans-stimulation by injected solute value belongs to SFGDLSTPDAVMG [SG-13] ?
Ans. 100 ± 2.9b % of the PfCRTDd2 control

Qu. Lookup DDEGDDDPVPLPNVNA [DA-16, additional peptide, 16 residues]
Ans. 99 ± 2.7b % of the PfCRTDd2 control

---

Recorded measurements of activity at 45000 µM, one per entry
Target: PfCRT^3D7 (Plasmodium falciparum)
Sequence (Q8IBZ9 59-398): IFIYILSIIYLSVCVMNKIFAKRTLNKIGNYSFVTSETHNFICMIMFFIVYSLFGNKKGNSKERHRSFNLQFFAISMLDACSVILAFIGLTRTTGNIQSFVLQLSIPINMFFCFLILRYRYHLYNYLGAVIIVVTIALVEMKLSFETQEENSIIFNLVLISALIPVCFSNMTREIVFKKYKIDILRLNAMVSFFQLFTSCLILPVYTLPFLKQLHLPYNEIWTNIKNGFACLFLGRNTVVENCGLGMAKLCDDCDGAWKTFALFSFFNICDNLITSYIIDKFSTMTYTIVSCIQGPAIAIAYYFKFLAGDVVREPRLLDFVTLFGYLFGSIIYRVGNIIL
Assay: cell-based
Assay type: cell-based
Conditions: […]; SEM; read-out: Uptake of [3H]CQ (% PfCRTDd2 control), trans-stimulation, PfCRT3D7
Protocol: Unless specified otherwise, the transport assays were conducted over 1.5 h at 27.5 °C and the reaction buffer was ND96 (96 mM NaCl, 2 mM KCl, 1 mM MgCl2, 1.8 mM CaCl2, 10 mM MES and 10 mM Tris-base) at pH 5.5. The intracellular concentrations were calculated using previous estimates of the volume of stage V–VI oocytes (~400 nL[60]). […] The oocytes were injected with VF-6 suspended in 25 nL ND96 buffer adjusted to pH 5.0, 5.5, 6.0 or 7.0, which corresponded to the injection of 2.5–250 fmol of H^+. […]
Answer in %, number only, no unit symbol.

Completed entries (count: 3):
N[C@@H](CO)C(=O)O 3.3
N[C@@H](Cc1c[nH]c2ccccc12)C(=O)O 3.4
C[C@H](N)C(=O)O 3.3

Qu. Looking for the measured activity at 45000 µM of CC(C)C[C@H](N)C(=O)O , can you help?
Ans. 3.2

Qu. Please answer likewise for N[C@@H](Cc1ccccc1)C(=O)O
Ans. 3.3

Qu. Moving on to NC(=O)CC[C@H](N)C(=O)O
Ans. 3.3

Qu. Next molecule up: N=C(N)NCCC[C@H](N)C(=O)O
Ans. 3.3

Qu. Could you do the same for NCCCC[C@H](N)C(=O)O , please?
Ans. 3.3

Qu. Again, but for N[C@@H](CS)C(=O)O
Ans. 3.2

Qu. Request: CC[C@H](C)[C@H](N)C(=O)O
Ans. 3.3

Qu. Also CC(C)[C@H](N)C(=O)O ?
Ans. 3.3

Qu. Also N[C@@H](CCC(=O)O)C(=O)O , if possible.
Ans. 3.3

Qu. What do we get for C[C@@H](O)[C@H](N)C(=O)O ?
Ans. 3.3

Qu. Quick one: N[C@@H](Cc1c[nH]cn1)C(=O)O
Ans. 3.3
